# credit: paper PMC6893557

- target: Hck U-SH32-L (Hck-U32L) (Homo sapiens)
- Construct: including the N-terminal unique region, followed by the SH3 and SH2 domains, and the SH2-kinase linker
- Sequence (P08631 22-256): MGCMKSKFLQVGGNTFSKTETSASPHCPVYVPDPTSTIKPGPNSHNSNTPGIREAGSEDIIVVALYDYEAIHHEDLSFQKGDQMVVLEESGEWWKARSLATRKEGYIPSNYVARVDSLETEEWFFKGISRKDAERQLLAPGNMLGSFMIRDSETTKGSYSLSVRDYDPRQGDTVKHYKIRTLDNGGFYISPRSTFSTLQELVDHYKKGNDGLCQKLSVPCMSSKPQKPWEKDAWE
- assay.explanation: SPR binding, Hck unique-SH3-SH2-linker protein
- test.context: kinetic KD, 1:1 Langmuir model, ± S.E., NI = no interaction, read-out: KD, Hck proteins U-SH32-L
metric: Kd (µM)
One number for each entry, in µM.

1. CC(C)Nc1ccnc(NCc2cccnc2Oc2ccc(F)cc2F)n1 [Compound 1]: 36
2. Cc1cnc(NCc2ccccc2CN2CCCC2=O)nc1N(C)C [Compound 4]: 831

For every record below, what is its Kd?
1. CNc1ccnc(NCCC23CCCN2CCC3)n1 [Compound 3]
2. Cc1cnc(NCc2ccccc2-n2ccnc2)nc1N(C)C [Compound 2]

1: 55; 2: 30

====

Consider the following compounds; for each one, report its Kd.
- target: Hck SH32-L (Homo sapiens)
- Construct: an SH3-SH2-linker protein lacking the N-terminal unique domain
- Sequence (P08631 72-256 limits assumed): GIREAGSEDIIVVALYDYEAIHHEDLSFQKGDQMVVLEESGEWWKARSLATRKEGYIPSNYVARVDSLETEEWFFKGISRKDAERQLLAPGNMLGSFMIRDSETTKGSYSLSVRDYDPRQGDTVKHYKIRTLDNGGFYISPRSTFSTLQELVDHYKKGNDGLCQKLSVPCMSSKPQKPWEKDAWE
- assay.explanation: SPR binding, Hck SH3-SH2-linker protein
- test.context: kinetic KD, 1:1 Langmuir model, ± S.E., NI = no interaction, read-out: KD, Hck proteins SH32-L
Give bare numbers, in µM.

Sample answers from the record:
1. CC(C)Nc1ccnc(NCc2cccnc2Oc2ccc(F)cc2F)n1 [Compound 1]: 83
2. CNc1ccnc(NCCC23CCCN2CCC3)n1 [Compound 3]: 905
3. Cc1cnc(NCc2ccccc2CN2CCCC2=O)nc1N(C)C [Compound 4]: 338

Now consider a different compound.
Dear colleague, I am looking for the recorded Kd of the following compound: Cc1cnc(NCc2ccccc2-n2ccnc2)nc1N(C)C [Compound 2]
96

====

Consider the following molecules; for each one, report its Kd.
- target: Hck-YEEI (Homo sapiens, UniProt P08631, Q523E/Q524E/Q525I)
- Construct: a near-full-length form of Hck consisting of the SH3, SH2 and kinase domains plus the tyrosine-phosphorylated tail
- Sequence (P08631 78-526 Q523E/Q524E/Q525I limits assumed): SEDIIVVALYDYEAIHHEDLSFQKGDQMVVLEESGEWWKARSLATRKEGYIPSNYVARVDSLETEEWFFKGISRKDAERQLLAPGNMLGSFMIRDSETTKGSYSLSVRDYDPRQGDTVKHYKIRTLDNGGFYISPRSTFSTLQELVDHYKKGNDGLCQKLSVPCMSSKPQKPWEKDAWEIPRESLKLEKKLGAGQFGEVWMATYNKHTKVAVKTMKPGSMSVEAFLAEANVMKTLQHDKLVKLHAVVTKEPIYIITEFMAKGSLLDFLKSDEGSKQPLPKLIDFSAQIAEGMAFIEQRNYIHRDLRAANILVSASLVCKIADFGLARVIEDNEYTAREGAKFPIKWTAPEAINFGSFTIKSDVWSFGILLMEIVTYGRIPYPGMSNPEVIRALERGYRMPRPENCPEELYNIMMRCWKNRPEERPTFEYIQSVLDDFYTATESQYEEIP
- assay.explanation: SPR binding, near-full-length Hck
- test.context: kinetic KD, 1:1 Langmuir model, ± S.E., NI = no interaction, read-out: KD, Hck proteins Hck-YEEI
Units required after the number.

Sample answers from the record:
1) CC(C)Nc1ccnc(NCc2cccnc2Oc2ccc(F)cc2F)n1: 103 µM
2) Cc1cnc(NCc2ccccc2CN2CCCC2=O)nc1N(C)C: 180 µM

For every record below, what is its Kd?
1. CNc1ccnc(NCCC23CCCN2CCC3)n1
2. Cc1cnc(NCc2ccccc2-n2ccnc2)nc1N(C)C

1. 142 µM
2. 93 µM

====

Consider the following molecules; for each one, report its pKd.
- target: Fgr U-SH32-L (Homo sapiens, UniProt P09769)
- Construct: the complete regulatory region, consisting of the unique, SH3, and SH2 domains plus the SH2-kinase linker (U32L protein)
- Sequence (P09769 1-257 limits assumed): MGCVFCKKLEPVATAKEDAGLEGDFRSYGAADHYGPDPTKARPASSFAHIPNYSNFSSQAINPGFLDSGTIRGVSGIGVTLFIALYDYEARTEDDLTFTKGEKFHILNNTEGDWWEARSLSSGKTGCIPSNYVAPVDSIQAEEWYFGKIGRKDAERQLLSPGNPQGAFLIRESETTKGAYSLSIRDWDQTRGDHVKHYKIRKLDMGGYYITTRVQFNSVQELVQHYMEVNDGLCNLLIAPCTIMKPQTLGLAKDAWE
- assay.explanation: SPR binding, Fgr unique-SH3-SH2-linker protein
- test.context: kinetic KD, 1:1 Langmuir model, ± S.E., NI = no interaction, read-out: KD, Fgr proteins U-SH32-L
Numbers only, as −log10 of the molar value.

For every record below, what is its pKd?
1. Cc1cnc(NCc2ccccc2CN2CCCC2=O)nc1N(C)C
2. Cc1cnc(NCc2ccccc2-n2ccnc2)nc1N(C)C

3.99
4.15

Dear colleague, I am looking for the recorded pKd of the following molecule: CC(C)Nc1ccnc(NCc2cccnc2Oc2ccc(F)cc2F)n1
3.88

====

Consider the following molecules; for each one, report its pKd.
- target: Fgr SH32 (Homo sapiens, UniProt P09769)
- Construct: including a dual SH3-SH2 domain protein
- Sequence (P09769 77-241 limits assumed): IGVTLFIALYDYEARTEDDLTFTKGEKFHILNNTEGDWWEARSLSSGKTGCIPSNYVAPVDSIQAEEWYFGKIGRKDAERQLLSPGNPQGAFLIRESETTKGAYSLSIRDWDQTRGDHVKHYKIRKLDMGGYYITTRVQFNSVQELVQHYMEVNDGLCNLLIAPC
- assay.explanation: SPR binding, Fgr dual SH3-SH2 domain protein
- test.context: kinetic KD, 1:1 Langmuir model, ± S.E., NI = no interaction, read-out: KD, Fgr proteins SH32
Give bare numbers, as −log10 of the molar value.

For every record below, what is its pKd?
1. Cc1cnc(NCc2ccccc2CN2CCCC2=O)nc1N(C)C
2. CC(C)Nc1ccnc(NCc2cccnc2Oc2ccc(F)cc2F)n1

4.16
3.98

Query the reported pKd for Fgr SH32 (Homo sapiens, UniProt P09769); item: Cc1cnc(NCc2ccccc2-n2ccnc2)nc1N(C)C
3.45
